Settings: in ethanol, 285.07 K

{"columns": ["Structure notation", "solubility (mole fraction)"],
 "data": [
  ["CC(C)C1=CC2=CC[C@@H]3[C@](C)(CCC[C@@]3(C)C(=O)O)[C@H]2CC1", 0.0165]
]}

====

Conditions: in ethanol, 315.23 K

{"columns": ["Structure notation", "solubility (mole fraction)"],
 "data": [
  ["CC(C)C1=CC2=CC[C@@H]3[C@](C)(CCC[C@@]3(C)C(=O)O)[C@H]2CC1", 0.041]
]}

====

Details: in ethanol, 304.05 K

{"columns": ["Structure notation", "solubility (mole fraction)"],
 "data": [
  ["CC(C)C1=CC2=CC[C@@H]3[C@](C)(CCC[C@@]3(C)C(=O)O)[C@H]2CC1", 0.0291]
]}

Where do the numbers come from? From BigSolDB 2.1.
